Please go through the items and note down their protein stability index.
- Method: protein stability index of a GFP-peptide fusion (yeast GPS) (PSI 1-4); higher = more stable; sorted into four equal gates, so the index is relative within each strain
- Conditions: doa10∆
Answers are plain numbers.

Examples with answers:
Identify measured protein stability index corresponding to YFYDLDVLKDGENNINF [BRN1]
3.57

Identify measured protein stability index corresponding to QSTPQPDDMVEINSVGN [ITC1]
3.2

Identify measured protein stability index corresponding to HDADLEVSMNSIFAMGL [RPN1]
1.85

State the recorded protein stability index for every item in the following list.
1. AERTMSKKETKLQENRT [SMC2]
2. NRQQKKRRFDPSSSDSN [RRP6]
3. CYVGLLTAIPILLEPIY [SNU114]
4. VTLLANVRALYMRLWEI [RMP1]
5. VVAAAEDDDNEQHEEKA [QCR6]
6. FKSPIDNSESHPFIPLL [RRP6]

2.84
2.77
1.31
1.57
2.87
1.95

State the recorded protein stability index for every item in the following list.
1. NLCKIIEPFECVEISHI [RPN6]
2. NSDKPRDVYVFDKVEVQ [DIS3]
3. WPKTRGVAMNPVDHPHG [RPL2A]

1: 2.27; 2: 2.96; 3: 2.37

====

- Method: protein stability index of a GFP-peptide fusion (yeast GPS) (PSI 1-4); higher = more stable; sorted into four equal gates, so the index is relative within each strain
- Conditions: ubr1∆
Please go through the items and note down their protein stability index.
Answers are plain numbers.

State the recorded protein stability index for every item in the following list.
1. KKNKRALPNIENDIIKL [BRR2]
2. QNSKFLKVNVTLDNPLL [YJL039C/NUP192]
3. VLQEYRLTKQAFDWVLS [RPO21]
4. AEQLKISLSVHTLALEF [RRP46]
5. WPKTRGVAMNPVDHPHG [RPL2A]
6. YNNRKCWPKDSRMRLIR [PRP8]

3.34
2.36
2.78
2.25
2.55
2.64

State the recorded protein stability index for every item in the following list.
1. DDDKKPDDDKIVPLTEG [RPT1]
2. KPALGSLGSSSTTASGT [YGR119C/NUP57]
3. VQIKDVNDRYQIPTPNN [CSI1]
4. IEHPMTSAIEVLVGSCA [RPN1]
5. VGTAIDSILNYAKSEFD [ECM29]
6. QLLEKAPIPIREDIDDP [BRR2]
7. STSYAIKKKDELERVAK [RPS5]
8. SPDQMRNLQMGLRNQNM [GRR1]

1: 3.32; 2: 3.06; 3: 1.73; 4: 1.82; 5: 3.08; 6: 1.92; 7: 3.35; 8: 2.71

====

- Method: protein stability index of a GFP-peptide fusion (yeast GPS) (PSI 1-4); higher = more stable; sorted into four equal gates, so the index is relative within each strain
- Conditions: ubr1∆
Measured Parameter: protein stability index
One number for each entry.

Identify measured protein stability index corresponding to QSSEDVITIKSRIRVKI [RPB7]
3

Identify measured protein stability index corresponding to VISLGPNLATFISSGTS [YJL039C/NUP192]
2.3

Identify measured protein stability index corresponding to EPIRFLPNQFPLKIHRT [SWI1]
1.73

State the recorded protein stability index for every item in the following list.
1. RDRTSGQKLLAIKYGYE [SRB4]
2. TKLNLHCVIEDDESEQI [RRI1]

3.23
2.65
